B1: library; a variant is named by its letters at N, in order (parent)
chain: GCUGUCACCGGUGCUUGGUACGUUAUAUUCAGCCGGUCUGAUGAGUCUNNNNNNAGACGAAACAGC

- Variants of: B1
- Procedure Summary: FACS-Seq fitted mean relative fluorescence mCherry/BFP without ligand (log10 relative fluorescence); HEK293T overexpressing SLC46A1; higher = higher reporter protein expression
- Test Conditions: without (6R,S)-folinic acid; ligand present: no
Okay, here is how we bin by FACS-Seq fitted mean (log10): bottom bin: < 0.2; middle bin: ≥ 0.2 and < 0.4; top bin: ≥ 0.4

Here's what some known entries look like.
Mutant Label	Classification
GCUAAU	top bin
GCUGAA	bottom bin
GAAUUG	top bin

Bin this entry: CGGGUA
bottom bin

Entry to check: UACGUG
bottom bin

Also, AGUUGA please.
bottom bin

And for CAUAUC ?
bottom bin

What about this variant? GCAGGG
bottom bin

Where these numbers come from: the supplement of paper PMC6757056
